Method Description: Storage stability of crystalline forms (decomposition to Trandolaprilat diketopiperazine, by HPLC)
Type: physicochemical
Study Conditions: storage temperature 20-25, storage time 4 months
Experimental: Purity was determined by HPLC using a Luna C18 (150×4.6 mm, 3 μm; Manufacturer: Phenomenex, Torrence, Calif., USA) column, as well as a Symmetry C18(2) (150×4.6 mm, 3.5 μm; Manufacturer: Waters Corporation, Millford, Mass., USA) column using as mobile phase: Mobile phase A: 0.03% v/v of trifluoroacetic acid in water; Mobile phase B: 0.025% v/v of trifluoroacetic acid in acetonitrile; column temperature 30° C., flow rate: 1.5 ml/min, detection: UV 206 nm; eluent gradient: […]
The entries below come with measured Amount of Trandolaprilat Diketopiperazine after Storage values attached.
All answers are understood in % by HPLC, so give the number only.

- Molecule: "C[C@H](N[C@@H](CCc1ccccc1)C(=O)O)C(=O)N1[C@H](C(=O)O)C[C@H]2CCCC[C@@H]21 [Form C, Trandolaprilat]"
  Readout Number: 0.26
- Molecule: "C[C@H](N[C@@H](CCc1ccccc1)C(=O)O)C(=O)N1[C@H](C(=O)O)C[C@H]2CCCC[C@@H]21 [Form A, Trandolaprilat]"
  Readout Number: 0.02
- Molecule: "C[C@H](N[C@@H](CCc1ccccc1)C(=O)O)C(=O)N1[C@H](C(=O)O)C[C@H]2CCCC[C@@H]21 [Form B, Trandolaprilat]"
  Readout Number: 0.20

Attention now turns to another entry.
Query: Amount of Trandolaprilat Diketopiperazine after Storage for C[C@H](N[C@@H](CCc1ccccc1)C(=O)O)C(=O)N1[C@H](C(=O)O)C[C@H]2CCCC[C@@H]21 [Form D, Trandolaprilat] ?
Reply: 0.03

Data origin: patent US7943655B2
